study-target: Von Hippel-Lindau disease tumor suppressor/Elongin B/Elongin C (Homo sapiens)
Sequence (P40337 whole entry, looked up): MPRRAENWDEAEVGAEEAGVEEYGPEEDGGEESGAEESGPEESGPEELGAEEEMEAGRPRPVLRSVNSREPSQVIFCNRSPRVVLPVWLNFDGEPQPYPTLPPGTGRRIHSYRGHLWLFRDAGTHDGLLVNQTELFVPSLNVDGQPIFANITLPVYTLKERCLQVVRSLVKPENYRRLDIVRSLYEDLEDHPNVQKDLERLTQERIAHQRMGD

smiles-notation	IC50
CCCS(=O)(=O)Nc1ccc(F)c(C(=O)c2c[nH]c3ncc(-c4ccc(N5CCN(CC(=O)N[C@H](C(=O)N6C[C@H](O)C[C@H]6C(=O)NCc6ccc(-c7scnc7C)cc6)C(C)(C)C)CC5)cc4)cc23)c1F	6.8 nM

====

measurement-protocol: AUC (0 to t) in ICR mouse at 2 mg/kg, iv
Format: ADME, organism-based
condition: in vivo

compound	AUC(0-t) [ng·h/mL]
NC(=O)c1cccc2cn(-c3ccc(C4CCCN(CCC5CCN(CCC6CCN(c7ccc8c(c7)C(=O)N(C7CCC(=O)NC7=O)C8=O)CC6)CC5)C4)cc3)nc12 (stereo unspecified)	24500
